Measurement Label: melting point

Entry CC(C)Cn1c(=O)n(C)c(=O)c2c(SCCCO)c(C(O)c3cccc4ccccc34)sc21 (stereo not given) : reported melting point = ?
100 to 105 °C

Query (molecule): "CC(=O)c1ccc(Nc2cccc(-c3cccnc3)c2)c(N)c1" ; field requested: melting point
175 to 176 °C

Request the reported melting point associated with O=C(O)COc1cccc2c1CC(S(=O)(=O)Cc1ccccc1)c1sc(-c3ccc(F)cc3)nc1-2 (stereo not given)
210 to 211 °C

----------
Measurement Label: melting point

Past entries and their recorded results:
INSERT INTO measurements (molecule, reported_value) VALUES
  ('CCN1OCC(=Cc2cc(C(C)(C)C)c(O)c(C(C)(C)C)c2)C1=O', '189 to 191 °C'),
  ('CC/C(=N\OC(F)F)c1ccc(Cl)c2nc3n(c12)CCCN3c1c(C)nc(OC)nc1C', '199 to 200 °C');

For the molecule shown here, "CCOC(=O)c1cnc(N)s1" , give the reported melting point.
155 to 158 °C

Requested read-out: melting point. Entry: "O=C(Nc1cc(C(F)(F)F)cc(C(F)(F)F)c1)c1cnc(Cl)nc1Cl"
104 to 105 °C

Query (molecule): CC12CC(N3CCC(O)CC3)C(O)CC1CCC1C2CCC2(C)C(O)C(N3CCC(O)CC3)CC12 (stereo not given) ; field requested: melting point
248 to 250 °C

----------
Quick reference: melting point of the listed items.

Consider the reported melting point for these molecules:
INSERT INTO results (molecule, measurement_label, reported_value) VALUES
  ('COc1cc(C(=O)C#CC(=O)N(C)C)cc(OC)c1OC', 'melting point', '118 to 119 °C'),
  ('O=C(CN1CCC(Cc2ccccc2)CC1)Nc1ccc(O)cc1', 'melting point', '66 to 70 °C'),
  ('COC(=O)C1C(c2ccc(I)cc2)CC2CCC1N2C (stereo unspecified)', 'melting point', '101 to 102 °C'),
  ('CCCCCCC(=O)CC(=O)c1ccccc1', 'melting point', '14 °C'),
  ('COC(=O)c1cc2cc(OCCCl)ccc2s1', 'melting point', '116 to 117 °C');

Reported melting point, molecule "CCOC(=O)c1cnn(-c2cccc(Cl)c2)c1C(N)=O" : ____
132 °C

I would be grateful if you could share the reported melting point for "O=C1COc2c1ccc1ccccc21" .
191 to 192 °C

Look at this molecule and give its reported melting point. "CC(C)(C)c1cc(C(=O)NCCCSc2ccncc2)cc(C(C)(C)C)c1O"
203 to 204 °C

Give the measured melting point of "COc1cccc(OC)c1C(=O)Nc1ccc(C(=O)O)cc1" .
236 to 240 °C

Item "CS(=O)(=O)c1cccc(Br)c1" has what recorded melting point?
63 to 64 °C

Requested read-out: melting point. Entry: "Cc1nc(-n2ccccc2=O)sc1C(=O)NCc1ccccc1"
180 to 182 °C

----------
melting point for assorted molecules

Worked examples follow.
INSERT INTO results (molecule, reported_value) VALUES
  ('CN(c1cccc2cc(-c3nccs3)[nH]c12)S(=O)(=O)c1ccsc1CSCC(=O)O', '193 °C'),
  ('CCOC(=O)CNC(=O)c1cc2c(s1)-n1c(C)nnc1CN=C2c1ccccc1Cl', '251 to 252 °C'),
  ('O=C(NCc1ccc(F)cc1)Nc1ccc(CN2C(=O)[C@H]3CCC[C@H]3N(C(=O)CN3C(=O)c4ccccc4C3=O)c3ccccc32)cc1 (relative stereo)', '154 to 156 °C'),
  ('CCCCCC#CCC(CC#CCCCCC)(C(=O)O)S(=O)(=O)c1ccc(OC)cc1', '61 °C'),
  ('CCc1ccc(Sc2nn(-c3ccc(OC)cc3)c(=O)c(C#N)c2C)cc1', '159 to 160 °C'),
  ('Fc1ccc(C2OC(=S)OC2(Cn2cncn2)c2ccc(Cl)cc2Cl)cc1 (centres undefined)', '169 to 170 °C');

Entry under review: CC1(C2CCCC2)Cc2cc(OCC#N)c(Cl)c(Cl)c2C1=O (centres undefined) . Reported melting point?
129 to 131 °C

Fill blank: measured melting point of the molecule "CC(=O)c1cc2c(s1)CCc1cc(=O)n(-c3ccc(C)cc3)nc1-2" is ____.
240 to 242 °C

Entry under review: "Cn1cc(CC(=O)O)c2cc(Br)ccc21" . Reported melting point?
192 to 194 °C

----------
Measurement Label: melting point

INSERT INTO measurements (compound, measurement_label, reported_value) VALUES
  ('COc1nc(NCCCN2CCOCC2)nc(OC)c1NC(=O)c1coc(Oc2cccc(C(C)(C)C)c2)n1', 'melting point', '85 °C'),
  ('COC(c1ccc(Cl)cc1)(c1ccc(NC(=O)c2cccc(I)c2C(=O)NC(C)C)c(C)c1)C(F)(F)F (stereo not given)', 'melting point', '212 to 214 °C');

Value lookup for melting point; key = "COC(=O)c1cccc2c1ccn2S(=O)(=O)c1ccc(C)cc1"
145 to 147 °C

What value of melting point has been recorded for this entry: "N#Cc1cc(C(F)(F)F)nn1-c1ccc(NC(=O)c2ccncc2Cl)cc1"
221 to 222 °C

Can you share its melting point? I mean this compound: CC12CCc3cc(C#N)ccc3C1=NNC(=O)C2 (stereo not given)
> 300 °C

What value of melting point has been reported for the following compound? "CC(=O)NC1Cc2cccc3cccc(c23)C1"
180 to 181 °C

Request the reported melting point associated with O=C1C=C(O)CC(c2ccc3c(c2)OCO3)C1 (stereo not given)
181 °C

# melting point lookup, item "COc1ccc(CNc2cc(Cl)ncc2C=O)cc1Cl"
146 to 148 °C

Any idea what melting point was measured for "N#Cc1ncn2c1COC(=O)c1ccccc1-2" ?
220 to 221 °C

Quick one: melting point for "CCOC(=O)c1ccc(CCNS(=O)(=O)c2ccc(Cl)cc2)cc1" ?
88 °C

----------
Measurement Label: melting point

Reference set (3 entries):
INSERT INTO assay_data (compound, measurement_label, reported_value) VALUES
  ('Cc1c(S(C)=O)c(C#N)nn1-c1c(Cl)cc(C(F)(F)F)cc1Cl (stereo not given)', 'melting point', '109 to 115 °C'),
  ('COc1ccc(-c2ccncc2)cc1Br', 'melting point', '82 to 84 °C'),
  ('COC(=O)c1cc(NC(=O)c2ccccc2)c2cc(Cc3ccc(F)cc3)cnc2c1O', 'melting point', '247 to 249 °C');

Reported melting point, compound "O=P(O)(O)Oc1cccc(-c2nc3sccn3c2-c2cccc(N[C@@H]3CCCN(S(=O)(=O)c4ccc(Cl)cc4)C3)c2)c1" : ____
239 to 245 °C

What measured melting point goes with "CCCCn1c(COCC)nc2c(N)nc3ccccc3c21" ?
139 to 140 °C

----------
Entries and their measured melting point follow.

Example results:
INSERT INTO results (compound, reported_value) VALUES
  ('Cn1cc(C=O)c2c3sc4ccccc4c3ccc21', '224 °C'),
  ('C=C(C(=O)OCC)c1cccc(-c2cc3c(cc2C)C(C)(C)CCC3(C)C)c1', '70 to 72 °C'),
  ('CCCCC(CC)Nc1cc(C)nc(Cl)c1[N+](=O)[O-] (stereo unspecified)', '48 to 49 °C');

Can you share its melting point? I mean this compound: "COc1ccc2c(c1)C(=O)c1c-2c(Cl)nc2ccc(F)cc12"
149 to 150 °C

Record request: melting point value, item "CCC(O)=C1SC(=S)N(c2ccc(Cl)cc2)C1=O"
145 to 149 °C

Looking for the measured melting point of "CC(/C=C/c1c(C)sc(C)c1C)=C(F)\C=C\C(C)=C\C(N)=O" , can you help?
212 to 215 °C

----------
Measurement Label: melting point

Worked cases, answers included:
INSERT INTO measurements (compound, reported_value) VALUES
  ('Cc1ccc(CNC(=O)C(=O)NCCc2ccccn2)n1C', '147 to 149 °C'),
  ('NC(=O)N(O)CCc1ccc(Sc2cccc(C(F)(F)F)c2)s1', '124 to 126 °C'),
  ('O=C1Nc2ccccc2SC1CCN1C=CN(c2ccc(F)cc2)C=C1 (stereo unspecified)', '158 to 159 °C');

Next:
Consider the compound "CCCc1ncc(/C=C(\Cc2cccs2)c2nnn[nH]2)n1Cc1ccccc1Cl" and give its measured melting point.
174 to 175 °C

----------
# Lookup of reported melting point keyed by entry

Here are 5 compounds together with their reported answers.
INSERT INTO measurements (compound, measurement_label, reported_value) VALUES
  ('Cc1ccc(C)c(OCCCC(C)(C)C(=O)Nc2ccc3c(c2)OCO3)c1', 'melting point', '89 to 90 °C'),
  ('COc1cc(O)ccc1/C=C/c1ccc(O)cc1', 'melting point', '192 to 194 °C'),
  ('ON=C(Nc1ccc(C(F)(F)F)cc1)C1=NN(c2ccc(Cl)cc2)C(c2ccc(F)cc2)C1 (stereo unspecified)', 'melting point', '188 to 191 °C'),
  ('COc1c(Cl)ccnc1C(=O)O', 'melting point', '116 to 117 °C'),
  ('O=C(O)CCCc1cc2nc(Cl)ccc2n1S(=O)(=O)c1ccc(-c2cccnc2)cc1', 'melting point', '141 °C');

Now, please, on to the next compound.
Reported melting point, compound COc1ccc2c(c1OC)CCC(C#N)C2C#N (stereo unspecified) : ____
107 to 108 °C
